Target: VEGF (R&D systems, Minneapolis, Minn.) (UniProt P15692-4 27-191, limits assumed)
Sequence (P15692 other isoform, or with tags, fused parts or gaps limits assumed): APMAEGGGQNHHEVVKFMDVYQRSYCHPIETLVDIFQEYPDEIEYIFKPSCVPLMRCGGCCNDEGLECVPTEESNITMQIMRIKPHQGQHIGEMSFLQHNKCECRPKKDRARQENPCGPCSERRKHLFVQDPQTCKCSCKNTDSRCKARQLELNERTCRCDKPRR
Assay: BIAcore SPR
Observable: koff (s⁻¹)
Answers are plain numbers, in s⁻¹.

92 (antibody, human IgG1, V domains shown) VH: EVQLVESGGGLVQPGGSLRLSCAASGYTFTNYGMNWVRQAPGKGLEWVGWINTYTGEPTYAADFKRRFTFSLDTSKSTAYLQMNSLRAEDTAVYYCAKYPPYYGSSHWYFDVWGQGTLVTVSS VL: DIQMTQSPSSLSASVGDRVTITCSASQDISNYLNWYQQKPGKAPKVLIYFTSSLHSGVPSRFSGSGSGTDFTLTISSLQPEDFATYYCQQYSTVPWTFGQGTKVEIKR : 0.000256
84 (antibody, human IgG1, V domains shown) VH: EVQLVESGGGLVQPGGSLRLSCAASGYTFTFYGMNWVRQAPGKGLEWVGWINTYTGEPTYAADFKRRFTFSLDTSKSTAYLQMNSLRAEDTAVYYCAKYPPYEGSSHWYFDVWGQGTLVTVSS VL: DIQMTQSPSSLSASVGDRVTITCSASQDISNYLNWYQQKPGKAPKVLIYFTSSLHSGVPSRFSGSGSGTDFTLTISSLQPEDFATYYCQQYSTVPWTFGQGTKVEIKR : 0.000182

Quick one: give me koff for each item below, same order please.
1. 95 (antibody, human IgG1, V domains shown) VH: EVQLVESGGGLVQPGGSLRLSCAASGYTFTNYGMNWVRQAPGKGLEWVGWINTYTGEPTYAADFKRRFTFSLDTSKSTAYLQMNSLRAEDTAVYYCAKYPDYYGSSHWYFDVWGQGTLVTVSS VL: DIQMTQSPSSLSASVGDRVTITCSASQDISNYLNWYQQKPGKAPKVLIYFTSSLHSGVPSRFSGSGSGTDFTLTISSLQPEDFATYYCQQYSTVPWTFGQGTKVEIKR
2. 94 (antibody, human IgG1, V domains shown) VH: EVQLVESGGGLVQPGGSLRLSCAASGYTFTFYGMNWVRQAPGKGLEWVGWINTYTGEPTYAADFKRRFTFSLDTSKSTAYLQMNSLRAEDTAVYYCAKYPHYYGGSHWYFDVWGQGTLVTVSS VL: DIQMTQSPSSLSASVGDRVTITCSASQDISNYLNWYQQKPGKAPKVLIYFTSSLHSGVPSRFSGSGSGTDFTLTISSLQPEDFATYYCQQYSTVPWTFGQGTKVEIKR
3. 90 (antibody, human IgG1, V domains shown) VH: EVQLVESGGGLVQPGGSLRLSCAASGYTFTFYGMNWVRQAPGKGLEWVGWINTYTGEPTYAADFKRRFTFSLDTSKSTAYLQMNSLRAEDTAVYYCAKYPDYYGSSHWYFDVWGQGTLVTVSS VL: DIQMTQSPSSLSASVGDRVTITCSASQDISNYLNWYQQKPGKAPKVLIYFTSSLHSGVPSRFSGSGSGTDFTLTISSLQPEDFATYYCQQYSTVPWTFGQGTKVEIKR

Response:
1. 0.000396
2. 0.00022
3. 0.000197
